Values from patent US9889115B2

# Lookup of reported pIC50 keyed by entry
Test system: multidrug-resistant HIV-1 clinical isolate, patient 17
Assay: microbe, parasite or virus in culture
Format: cell-based
Conditions: Human immunodeficiency virus 1; Patient Isolate 17
Scale for pIC50: -log10 of concentration given in mol/L; no unit attached.

Here are 3 compounds together with their reported answers.
1. CC(C)(C)NC(=O)[C@@H]1C[C@@H]2CCCC[C@@H]2CN1C[C@@H](O)[C@H](Cc1ccccc1)NC(=O)[C@H](CC(N)=O)NC(=O)c1ccc2ccccc2n1 [SAQ, Saquinavir] = 6.97
2. CC(C)c1nc(CN(C)C(=O)N[C@H](C(=O)N[C@@H](Cc2ccccc2)C[C@H](O)[C@H](Cc2ccccc2)NC(=O)OCc2cncs2)C(C)C)cs1 [RTV, Ritonavir] = 6.06
3. Cc1c(O)cccc1C(=O)N[C@@H](CSc1ccccc1)[C@H](O)CN1C[C@H]2CCCC[C@H]2C[C@H]1C(=O)NC(C)(C)C [Nel., Nelfinavir] = 6.28

Consider the compound CC(C)(C)NC(=O)[C@@H]1CN(Cc2cccnc2)CCN1C[C@@H](O)C[C@@H](Cc1ccccc1)C(=O)N[C@H]1c2ccccc2C[C@H]1O [IDV, Indinavir] and give its measured pIC50.
6.30
